assay: E. coli strain growth, wild-type against G2058 humanized RFP mutant – G2058 mutant RFP vs wild-type GFP, cherry-pick, two tests, dose response (AID 1035470); settings: E. coli WT-GFP vs G2058-humanized RFP, fluorescence, 24 h; series mostly up to 50 µM
In all, about 1,800 compounds went through this assay and fewer than 10 were called active. Inconclusive results (about 16%) are left out. Only a sample is shown. Measured potencies and affinities stand elsewhere.
READOUT: outcome

smiles_code=CCOc1ccccc1C(=O)NCC(=O)OCCOc1cccc(Cl)c1 measured_result=inactive
smiles_code=CN1CCSc2ccc(C(=O)Nc3cccc(F)c3)cc21 measured_result=inactive
smiles_code=O=[N+]([O-])c1ccc2nc(-c3ccccc3[N+](=O)[O-])[nH]c2c1 measured_result=inactive
